# system: Fasciola hepatica TIM (FhTIM) (Fasciola hepatica, UniProt S4UI50)
# Sequence (S4UI50 entry or part of it): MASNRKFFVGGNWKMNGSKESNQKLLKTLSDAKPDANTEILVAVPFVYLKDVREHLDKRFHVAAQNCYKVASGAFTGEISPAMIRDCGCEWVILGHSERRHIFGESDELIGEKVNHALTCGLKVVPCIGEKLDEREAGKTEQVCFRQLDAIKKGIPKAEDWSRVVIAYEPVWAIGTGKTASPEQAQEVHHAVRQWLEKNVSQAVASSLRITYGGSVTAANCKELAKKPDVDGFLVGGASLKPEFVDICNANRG
# protocol text: Inhibition of recombinant FhTIM, coupled enzyme assay
# Format: biochemical
# test context: Table 1S, screening of 340 compounds in FhTIM; table head prints no unit, µM per b8/b9; read-out: IC50
quantity measured: IC50

CN1C/C(=C\C=C\c2ccccc2)C(=O)/C(=C/C=C/c2ccccc2)C1 [Compound 1284]
50 to 100 µM
NC1=NS(=O)(=O)N=C(N)C1N [Compound 723]
> 100 µM
O=C(O)c1ccc(Cl)[n+]([O-])c1 [Compound 472]
> 100 µM

Which measured IC50 value corresponds to C=CCn1c(C)csc1=NN=Cc1cccs1 [Compound 274] ?
50 to 100 µM

Which measured IC50 value corresponds to C=CCn1c(C(=O)CN2CCSCC2)csc1=NN=CC=Cc1ccco1 [Compound 1116] ?
> 100 µM

Origin of values: paper PMC7018972
